test: Tmax in fasted Sprague-Dawley rat at 1 mg/kg, iv by LC-MS/MS analysis; format: ADME, organism-based; details: in vivo
measured.attribute: Tmax (min)

1) C=C[C@]1(C)C[C@@H](OC(=O)COC(=O)/C=C/c2ccc(N(C)C)cc2)[C@]2(C)[C@H](C)CC[C@]3(CCC(=O)[C@H]32)[C@@H](C)[C@@H]1O | 4.98

---

test: Cytotoxicity against human A549 cells incubated for 24 hrs by CCK8 assay; format: toxicity, cell-based
measured.attribute: CC50 at 24 h (µM)

1) C=C[C@]1(C)C[C@@H](OC(=O)COC(=O)/C=C/c2cccnc2)[C@]2(C)[C@H](C)CC[C@]3(CCC(=O)[C@H]32)[C@@H](C)[C@@H]1O | 63.4
2) C=C[C@]1(C)C[C@@H](OC(=O)CS[C@@H]2C[C@H]3CC[C@@H](C2)N3C)[C@]2(C)[C@H](C)CC[C@]3(CCC(=O)[C@H]32)[C@@H](C)[C@@H]1O [RETAPAMULIN] | 74.2
3) C=C[C@]1(C)C[C@@H](OC(=O)CSC(C)(C)CNC(=O)[C@H](N)C(C)C)[C@]2(C)[C@H](C)CC[C@]3(CCC(=O)[C@H]32)[C@@H](C)[C@@H]1O [VALNEMULIN] | 46.2
